Ref: patent US20210130452A1

Please go through the items and note down their % Biacore binding (IL-17A-NB)-IL-17RA.
# experimental_target: T1, human IL-17A (human, UniProt Q16552 24-155)
# T1 construct: secreted form (GenBank U32659) expressed in Hek293 with C-terminal 6-His; also called hIL-17A; IL-17A-6HIS
# T1 sequence (Q16552 other isoform, or with tags, fused parts or gaps): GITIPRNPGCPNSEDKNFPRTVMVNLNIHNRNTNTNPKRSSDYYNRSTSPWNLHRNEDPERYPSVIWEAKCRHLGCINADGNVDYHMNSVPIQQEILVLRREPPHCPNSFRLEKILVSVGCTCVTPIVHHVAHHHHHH
# protocol_description: SPR, IL-17A-Nanobody complex over captured IL-17RA
Numbers only, in %.

| binder | endpoint_unit | % Biacore binding (IL-17A-NB)-IL-17RA |
| --- | --- | --- |
| 09G10 (VHH, Class 2) VHH: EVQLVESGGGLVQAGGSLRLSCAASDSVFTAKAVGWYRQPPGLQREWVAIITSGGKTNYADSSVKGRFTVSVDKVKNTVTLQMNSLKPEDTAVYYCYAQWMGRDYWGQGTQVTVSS | % | 2.05 |

Report % Biacore binding (IL-17A-NB)-IL-17RA for each item below.
1. 13B03 (VHH, Class 4; also called IL17MS13B03) VHH: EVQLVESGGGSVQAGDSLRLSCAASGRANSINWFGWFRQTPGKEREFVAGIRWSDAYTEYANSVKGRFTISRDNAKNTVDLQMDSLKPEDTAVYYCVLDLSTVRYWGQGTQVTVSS
2. 11C08 (VHH, Class 4) VHH: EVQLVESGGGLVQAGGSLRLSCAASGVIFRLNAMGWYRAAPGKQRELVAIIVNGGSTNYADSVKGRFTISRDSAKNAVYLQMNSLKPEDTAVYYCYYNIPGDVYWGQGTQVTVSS
3. 04G01 (VHH, Class 2; also called IL17MS04G01) VHH: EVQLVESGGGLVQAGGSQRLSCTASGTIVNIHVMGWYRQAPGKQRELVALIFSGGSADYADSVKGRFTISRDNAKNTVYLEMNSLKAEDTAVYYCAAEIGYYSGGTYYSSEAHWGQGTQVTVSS

-2.24
3.25
-0.43
